target: T1, human IL-13 (human, UniProt P35225 35-146, biotinylated on the Biacore chip); assay: IL-13 Biacore
T1 construct: also called hIL-13; recombinant human IL-13
T1 sequence (P35225 35-146 limits assumed): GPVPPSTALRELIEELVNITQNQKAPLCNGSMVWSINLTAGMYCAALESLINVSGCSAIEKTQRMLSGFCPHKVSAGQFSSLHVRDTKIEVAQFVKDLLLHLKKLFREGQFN
MEASUREMENT LABEL: binding result

>>> observed("DOM9-112-210-ASTKGPS-DOM10-275 (bispecific antibody, in-line fusion, from pDOM5) EVQLLESGGGLVQPGGSLRLSCAASGFTFRNFGMGWVRQAPGKGLEWVSWIISSGTETYYADSVKGRFTISRDNSKNTLYLQMNSLRAEDTAVYYCAKSLGRFDYWGQGTLVTVSSASTKGPSEVQLLESGGGLVQPGGSLRLSCAASGFTFDREEMDWVRQAPGKGLEWVSTISPSGRKTYYADSVKGRFTISRDNSKNTLYLQMNSLRAEDTAVYYCAKHGTGFDYWGQGTLVTVSS")
"binds"
>>> observed("DOM9-112-210-ASTKGPS-DOM10-215 (bispecific antibody, in-line fusion, from pDOM5) EVQLLESGGGLVQPGGSLRLSCAASGFTFRNFGMGWVRQAPGKGLEWVSWIISSGTETYYADSVKGRFTISRDNSKNTLYLQMNSLRAEDTAVYYCAKSLGRFDYWGQGTLVTVSSASTKGPSDIQMTQSPSSLSASVGDRVTITCRASQNIFADLNWYQQKPGKAPKLLIYMGSRLQSGVPSRFSGSGSGTDFTLTISSLQPEDFATYYCQQDYKFPLTFGQGTKVEIKR")
"binds"
>>> observed("DOM9-112-210-ASTKGPS-DOM10-236 (bispecific antibody, in-line fusion, from pDOM5) EVQLLESGGGLVQPGGSLRLSCAASGFTFRNFGMGWVRQAPGKGLEWVSWIISSGTETYYADSVKGRFTISRDNSKNTLYLQMNSLRAEDTAVYYCAKSLGRFDYWGQGTLVTVSSASTKGPSEVQLLESGGGLVQPGGSLRLSCAASGFTFPKYDMMWVRQAPGKGLEWVSSIDHLGVNTYYADSVKGRFTISRDNSKNTLYLQMNSLRAEDTAVYYCAKESDWPSFDYWGQGTLVTVSS")
"binds"
